ASSAY_TARGET: T1, Wild type CD117 purified protein (human, UniProt P10721 26-520, limits assumed)
T1 construct: Protein used in BLI/kinetics and cryo-EM; also called wt CD117; Wt CD117
T1 sequence (P10721 26-520 limits assumed): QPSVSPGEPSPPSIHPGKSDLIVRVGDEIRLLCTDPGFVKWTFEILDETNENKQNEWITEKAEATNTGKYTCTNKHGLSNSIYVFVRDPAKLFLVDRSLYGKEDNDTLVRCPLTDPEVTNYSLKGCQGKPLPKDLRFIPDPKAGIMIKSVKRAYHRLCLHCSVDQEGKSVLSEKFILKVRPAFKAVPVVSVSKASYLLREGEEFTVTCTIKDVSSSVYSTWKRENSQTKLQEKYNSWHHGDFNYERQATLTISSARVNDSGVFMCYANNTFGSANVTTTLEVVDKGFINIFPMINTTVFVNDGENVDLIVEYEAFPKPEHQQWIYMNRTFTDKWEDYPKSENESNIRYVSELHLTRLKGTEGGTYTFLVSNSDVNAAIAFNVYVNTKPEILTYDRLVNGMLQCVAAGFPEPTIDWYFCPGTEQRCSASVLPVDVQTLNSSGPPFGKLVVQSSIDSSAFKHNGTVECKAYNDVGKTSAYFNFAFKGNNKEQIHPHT
TEST: binding kinetics, FIGS. 45A-45K
RECORDED_METRIC: koff (s⁻¹)
Provide the reading as a plain figure in s⁻¹.

BINDER	koff / s⁻¹
ABTx052 variant VL_S93G (antibody, human IgG1, V domains shown) VH: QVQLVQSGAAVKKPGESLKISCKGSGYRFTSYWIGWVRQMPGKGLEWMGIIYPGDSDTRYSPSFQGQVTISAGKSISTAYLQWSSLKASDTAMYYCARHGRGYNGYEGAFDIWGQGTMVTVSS VL: AIQLTQSPSSLSASVGDRVTITCRASQGISSALAWYQQKPGKAPKLLIYDASSLESGVPSRFSGSGSGTDFTLTISSLQPEDFATYYCQQFNGYPLTFGGGTKVEIK	4.81e-05
ABTx052 variant VL_F91T (antibody, human IgG1, V domains shown) VH: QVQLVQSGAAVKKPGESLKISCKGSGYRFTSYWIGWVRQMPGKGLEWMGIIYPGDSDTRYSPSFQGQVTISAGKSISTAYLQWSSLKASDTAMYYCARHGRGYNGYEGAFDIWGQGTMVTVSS VL: AIQLTQSPSSLSASVGDRVTITCRASQGISSALAWYQQKPGKAPKLLIYDASSLESGVPSRFSGSGSGTDFTLTISSLQPEDFATYYCQQTNSYPLTFGGGTKVEIK	0.000104

// koff lookup, binder = ABTx052 variant VL_Y94S (antibody, human IgG1, V domains shown) VH: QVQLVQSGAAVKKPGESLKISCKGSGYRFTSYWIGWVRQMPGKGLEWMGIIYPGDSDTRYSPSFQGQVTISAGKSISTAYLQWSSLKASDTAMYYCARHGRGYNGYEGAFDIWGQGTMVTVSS VL: AIQLTQSPSSLSASVGDRVTITCRASQGISSALAWYQQKPGKAPKLLIYDASSLESGVPSRFSGSGSGTDFTLTISSLQPEDFATYYCQQFNSSPLTFGGGTKVEIK , result: 0.00218

// koff lookup, binder = ABTx052 variant VH_R59K (antibody, human IgG1, V domains shown) VH: QVQLVQSGAAVKKPGESLKISCKGSGYRFTSYWIGWVRQMPGKGLEWMGIIYPGDSDTKYSPSFQGQVTISAGKSISTAYLQWSSLKASDTAMYYCARHGRGYNGYEGAFDIWGQGTMVTVSS VL: AIQLTQSPSSLSASVGDRVTITCRASQGISSALAWYQQKPGKAPKLLIYDASSLESGVPSRFSGSGSGTDFTLTISSLQPEDFATYYCQQFNSYPLTFGGGTKVEIKR , result: 0.000713

// koff lookup, binder = ABTx052 variant VL_Y94H (antibody, human IgG1, V domains shown) VH: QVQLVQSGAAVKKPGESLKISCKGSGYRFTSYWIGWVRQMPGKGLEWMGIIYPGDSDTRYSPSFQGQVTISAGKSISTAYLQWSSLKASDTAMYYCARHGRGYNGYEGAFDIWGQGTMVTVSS VL: AIQLTQSPSSLSASVGDRVTITCRASQGISSALAWYQQKPGKAPKLLIYDASSLESGVPSRFSGSGSGTDFTLTISSLQPEDFATYYCQQFNSHPLTFGGGTKVEIK , result: 0.00178

// koff lookup, binder = ABTx052 variant VL_N92R (antibody, human IgG1, V domains shown) VH: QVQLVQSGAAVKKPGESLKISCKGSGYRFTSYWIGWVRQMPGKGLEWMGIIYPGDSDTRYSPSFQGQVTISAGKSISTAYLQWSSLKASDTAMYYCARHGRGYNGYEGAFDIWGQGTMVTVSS VL: AIQLTQSPSSLSASVGDRVTITCRASQGISSALAWYQQKPGKAPKLLIYDASSLESGVPSRFSGSGSGTDFTLTISSLQPEDFATYYCQQFRSYPLTFGGGTKVEIK , result: 0.000434

// koff lookup, binder = ABTx052 variant VH_G105A (antibody, human IgG1, V domains shown) VH: QVQLVQSGAAVKKPGESLKISCKGSGYRFTSYWIGWVRQMPGKGLEWMGIIYPGDSDTRYSPSFQGQVTISAGKSISTAYLQWSSLKASDTAMYYCARHGRGYNAYEGAFDIWGQGTMVTVSS VL: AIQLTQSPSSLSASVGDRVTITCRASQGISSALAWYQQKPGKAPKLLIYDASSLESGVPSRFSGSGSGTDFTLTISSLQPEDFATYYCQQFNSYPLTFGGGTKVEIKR , result: 0.000153

// koff lookup, binder = ABTx052 variant VL_N92Y (antibody, human IgG1, V domains shown) VH: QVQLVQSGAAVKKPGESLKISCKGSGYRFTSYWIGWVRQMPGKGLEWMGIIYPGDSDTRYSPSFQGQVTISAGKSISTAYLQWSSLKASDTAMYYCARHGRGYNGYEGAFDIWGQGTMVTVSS VL: AIQLTQSPSSLSASVGDRVTITCRASQGISSALAWYQQKPGKAPKLLIYDASSLESGVPSRFSGSGSGTDFTLTISSLQPEDFATYYCQQFYSYPLTFGGGTKVEIK , result: 0.000635

// koff lookup, binder = ABTx052 variant VH_N104D (antibody, human IgG1, V domains shown) VH: QVQLVQSGAAVKKPGESLKISCKGSGYRFTSYWIGWVRQMPGKGLEWMGIIYPGDSDTRYSPSFQGQVTISAGKSISTAYLQWSSLKASDTAMYYCARHGRGYDGYEGAFDIWGQGTMVTVSS VL: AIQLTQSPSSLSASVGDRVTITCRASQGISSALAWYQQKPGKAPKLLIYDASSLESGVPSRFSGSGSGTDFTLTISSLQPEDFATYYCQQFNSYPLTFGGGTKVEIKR , result: 0.000342

Source listed as patent US20260166085A1.
